assayed_system: BCL-2 (UniProt P10415 1-217, limits assumed)
Sequence (P10415 1-217 limits assumed): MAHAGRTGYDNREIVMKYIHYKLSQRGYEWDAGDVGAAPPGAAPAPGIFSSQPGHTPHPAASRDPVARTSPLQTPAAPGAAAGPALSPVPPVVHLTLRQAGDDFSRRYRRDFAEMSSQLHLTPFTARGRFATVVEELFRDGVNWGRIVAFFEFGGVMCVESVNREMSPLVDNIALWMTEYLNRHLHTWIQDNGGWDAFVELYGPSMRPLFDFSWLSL
protocol_summary: Ki table, method not stated
Positions of bridges follow the written chain, without caps; N, C: chain ends. Non-standard residues stand in square brackets, D forms with d. R8 = C=CCCCCCC[C@@](C)(N)C(=O)O; hAdm = homo-adamantyl glycine; S5 = C=CCCC[C@](C)(N)C(=O)O
Catalogue of binders with associated log10 of Ki
property_name: log10 of Ki (log10 of the value in nM)

>  <binder>
Ac-IAQALR[R8]IGDAFN[S5]AYA-NH2 (staple 7-14; SMILES CC[C@H](C)[C@H](NC(C)=O)C(=O)N[C@@H](C)C(=O)N[C@@H](CCC(N)=O)C(=O)N[C@@H](C)C(=O)N[C@@H](CC(C)C)C(=O)N[C@@H](CCCNC(=N)N)C(=O)N[C@]1(C)CCCCCCC=CCCC[C@@](C)(C(=O)N[C@@H](C)C(=O)N[C@@H](Cc2ccc(O)cc2)C(=O)N[C@@H](C)C(N)=O)NC(=O)[C@H](CC(N)=O)NC(=O)[C@H](Cc2ccccc2)NC(=O)[C@H](C)NC(=O)[C@H](CC(=O)O)NC(=O)CNC(=O)[C@H]([C@@H](C)CC)NC1=O, also called Ac-IAQALR$r8IGDAFN$AYA-NH2) [SEQ ID NO: 1640]

>  <property_name>
log10 of Ki

>  <meas_value>
2.91

$$$$
>  <binder>
IWIAQALXAIGDQFNAYYA (not fully specified; Ac- at N-terminus; -NH2 at C-terminus; $r8 at 9 and $ at 16 joined by all-carbon crosslinker; Cit (citrulline) at 8) [SEQ ID NO: 1656]

>  <property_name>
log10 of Ki

>  <meas_value>
1.95

$$$$
>  <binder>
IWIAQALRAIGDEFNAYYARR (not fully specified; Ac- at N-terminus; -NH2 at C-terminus; $r8 at 9 and $ at 16 joined by all-carbon crosslinker) [SEQ ID NO: 1628]

>  <property_name>
log10 of Ki

>  <meas_value>
1.11

$$$$
>  <binder>
Ac-IAAALR[R8]IGDAFN[S5]YYA-NH2 (staple 7-14; SMILES CC[C@H](C)[C@H](NC(C)=O)C(=O)N[C@@H](C)C(=O)N[C@@H](C)C(=O)N[C@@H](C)C(=O)N[C@@H](CC(C)C)C(=O)N[C@@H](CCCNC(=N)N)C(=O)N[C@]1(C)CCCCCCC=CCCC[C@@](C)(C(=O)N[C@@H](Cc2ccc(O)cc2)C(=O)N[C@@H](Cc2ccc(O)cc2)C(=O)N[C@@H](C)C(N)=O)NC(=O)[C@H](CC(N)=O)NC(=O)[C@H](Cc2ccccc2)NC(=O)[C@H](C)NC(=O)[C@H](CC(=O)O)NC(=O)CNC(=O)[C@H]([C@@H](C)CC)NC1=O, also called Ac-IAAALR$r8IGDAFN$YYA-NH2) [SEQ ID NO: 1636]

>  <property_name>
log10 of Ki

>  <meas_value>
2.50

$$$$
>  <binder>
Ac-IWIAQA[hAdm]R[R8]IGDAFN[S5]YYA-NH2 (staple 9-16, also called Ac-IWIAQAhAdmR$r8IGDAFN$YYA-NH2) [SEQ ID NO: 1691]

>  <property_name>
log10 of Ki

>  <meas_value>
2.38

$$$$
>  <binder>
IWIAQALXAIGDAFNAYYA (Ac- at N-terminus; -NH2 at C-terminus; $r8 at 9 and $ at 16 joined by all-carbon crosslinker; Cit (citrulline) at 8) [SEQ ID NO: 1655]

>  <property_name>
log10 of Ki

>  <meas_value>
2.33

$$$$

meta.source: patent US20180273587A1
